# Tested on: Pseudomonas aeruginosa
# Method Notes: Antibacterial activity against Pseudomonas aeruginosa ATCC 9027 assessed as inhibition of bacterial growth incubated for 24 hrs by broth dilution method
# Format: functional
Provide the recorded MIC for the entries that follow.

# input compound: C=C(C)[C@@H]1CCC(C)=C[C@H]1c1c(OCCCCN(C)C)cc(CCCCC)cc1OCCCCN(C)C ; wanted: its MIC 50 µg/mL

# input compound: C=C(C)[C@@H]1CCC(C)=C[C@H]1c1c(OCCCCCN)cc(CCCCC)cc1OCCCCCN ; wanted: its MIC > 50 µg/mL

# input compound: C=C(C)[C@@H]1CCC(C)=C[C@H]1c1c(OCCCCCBr)cc(CCCCC)cc1OCCCCCBr ; wanted: its MIC > 50 µg/mL

# input compound: C=C(C)[C@@H]1CCC(C)=C[C@H]1c1c(OCCCCCCCCCCBr)cc(CCCCC)cc1OCCCCCCCCCCBr ; wanted: its MIC > 50 µg/mL

# input compound: C=C(C)[C@@H]1CCC(C)=C[C@H]1c1c(OCCCCCCN)cc(CCCCC)cc1OCCCCCCN ; wanted: its MIC > 50 µg/mL

# input compound: C=C(C)[C@@H]1CCC(C)=C[C@H]1c1c(OCC(=O)O)cc(CCCCC)cc1OCC(=O)O ; wanted: its MIC > 50 µg/mL

# input compound: C=C(C)[C@@H]1CCC(C)=C[C@H]1c1c(OCCCCI)cc(CCCCC)cc1OCCCCI ; wanted: its MIC > 50 µg/mL

# input compound: C=C(C)[C@@H]1CCC(C)=C[C@H]1c1c(OCCCCN2CCSCC2)cc(CCCCC)cc1OCCCCN1CCSCC1 ; wanted: its MIC > 50 µg/mL

# input compound: C=C(C)[C@@H]1CCC(C)=C[C@H]1c1c(O)cc(CCCCC)cc1O ; wanted: its MIC > 50 µg/mL

# input compound: C=C(C)[C@@H]1CCC(C)=C[C@H]1c1c(OCCCCCNC(=N)N)cc(CCCCC)cc1OCCCCCNC(=N)N ; wanted: its MIC 25 µg/mL

# input compound: C=C(C)[C@@H]1CCC(C)=C[C@H]1c1c(OCC(=O)N[C@@H](CCCCN)C(=O)OC)cc(CCCCC)cc1OCC(=O)N[C@@H](CCCCN)C(=O)OC ; wanted: its MIC > 50 µg/mL

# input compound: C=C(C)[C@@H]1CCC(C)=C[C@H]1c1c(OCCCNC(=N)N)cc(CCCCC)cc1OCCCNC(=N)N ; wanted: its MIC 6.25 µg/mL

# input compound: C=C(C)[C@@H]1CCC(C)=C[C@H]1c1c(OCCCBr)cc(CCCCC)cc1OCCCBr ; wanted: its MIC > 50 µg/mL

# input compound: C=C(C)[C@@H]1CCC(C)=C[C@H]1c1c(OCCCCN2CCCC2)cc(CCCCC)cc1OCCCCN1CCCC1 ; wanted: its MIC 25 µg/mL

# input compound: C=C(C)[C@@H]1CCC(C)=C[C@H]1c1c(OCCCCCCBr)cc(CCCCC)cc1OCCCCCCBr ; wanted: its MIC > 50 µg/mL

# input compound: C=C(C)[C@@H]1CCC(C)=C[C@H]1c1c(OCCCCN(C)CCCN(C)CCCNC)cc(CCCCC)cc1OCCCCN(C)CCCN(C)CCCNC ; wanted: its MIC 6.25 µg/mL

# input compound: C=C(C)[C@@H]1CCC(C)=C[C@H]1c1c(OCCCCNCCC)cc(CCCCC)cc1OCCCCNCCC ; wanted: its MIC > 50 µg/mL

# input compound: C=C(C)[C@@H]1CCC(C)=C[C@H]1c1c(OCCCCCCNC(=N)N)cc(CCCCC)cc1OCCCCCCNC(=N)N ; wanted: its MIC > 50 µg/mL

# input compound: C=C(C)[C@@H]1CCC(C)=C[C@H]1c1c(OCCCCN(C)CCCNC)cc(CCCCC)cc1OCCCCN(C)CCCNC ; wanted: its MIC 3.12 µg/mL

# input compound: C=C(C)[C@@H]1CCC(C)=C[C@H]1c1c(OCCCCN(CC)CC)cc(CCCCC)cc1OCCCCN(CC)CC ; wanted: its MIC > 50 µg/mL

# input compound: C=C(C)[C@@H]1CCC(C)=C[C@H]1c1c(OCC(=O)N[C@@H](CCCNC(=N)N)C(=O)N[C@@H](CCCNC(=N)N)C(=O)OC)cc(CCCCC)cc1OCC(=O)N[C@@H](CCCNC(=N)N)C(=O)N[C@@H](CCCNC(=N)N)C(=O)OC ; wanted: its MIC 50 µg/mL

# input compound: C=C(C)[C@@H]1CCC(C)=C[C@H]1c1c(OCCCCNC)cc(CCCCC)cc1OCCCCNC ; wanted: its MIC > 50 µg/mL

# input compound: C=C(C)[C@@H]1CCC(C)=C[C@H]1c1c(OCCCCN(CCO)CCO)cc(CCCCC)cc1OCCCCN(CCO)CCO ; wanted: its MIC > 50 µg/mL

# input compound: C=C(C)[C@@H]1CCC(C)=C[C@H]1c1c(OCC(=O)OCC)cc(CCCCC)cc1OCC(=O)OCC ; wanted: its MIC > 50 µg/mL

# input compound: C=C(C)[C@@H]1CCC(C)=C[C@H]1c1c(OCC(=O)N[C@@H](CCCNC(=N)N)C(N)=O)cc(CCCCC)cc1OCC(=O)N[C@@H](CCCNC(=N)N)C(N)=O ; wanted: its MIC 50 µg/mL

# input compound: C=C(C)[C@@H]1CCC(C)=C[C@H]1c1c(OCCCCCCCCCCN)cc(CCCCC)cc1OCCCCCCCCCCN ; wanted: its MIC > 50 µg/mL

# input compound: C=C(C)[C@@H]1CCC(C)=C[C@H]1c1c(OCCCCNC(=N)N)cc(CCCCC)cc1OCCCCNC(=N)N ; wanted: its MIC 6.25 µg/mL

# input compound: C=C(C)[C@@H]1CCC(C)=C[C@H]1c1c(OCCCCCCCCCCNC(=N)N)cc(CCCCC)cc1OCCCCCCCCCCNC(=N)N ; wanted: its MIC > 50 µg/mL

# input compound: C=C(C)[C@@H]1CCC(C)=C[C@H]1c1c(OCCCCN)cc(CCCCC)cc1OCCCCN ; wanted: its MIC 50 µg/mL

# input compound: C=C(C)[C@@H]1CCC(C)=C[C@H]1c1c(OCC(=O)N[C@@H](CCCNC(=N)N)C(=O)OC)cc(CCCCC)cc1OCC(=O)N[C@@H](CCCNC(=N)N)C(=O)OC ; wanted: its MIC 50 µg/mL

# input compound: C=C(C)[C@@H]1CCC(C)=C[C@H]1c1c(OCCCCN(CCCC)CCCC)cc(CCCCC)cc1OCCCCN(CCCC)CCCC ; wanted: its MIC > 50 µg/mL

# input compound: C=C(C)[C@@H]1CCC(C)=C[C@H]1c1c(OCCCN)cc(CCCCC)cc1OCCCN ; wanted: its MIC > 50 µg/mL

====

# Tested on: Klebsiella pneumoniae
# Method Notes: Antibacterial activity against Klebsiella pneumoniae ATCC 14581 assessed as inhibition of bacterial growth incubated for 24 hrs by broth dilution method
# Format: functional
Provide the recorded MIC for the entries that follow.

# input molecule: C=C(C)[C@@H]1CCC(C)=C[C@H]1c1c(OCC(=O)O)cc(CCCCC)cc1OCC(=O)O ; wanted: its MIC > 50 µg/mL

# input molecule: C=C(C)[C@@H]1CCC(C)=C[C@H]1c1c(OCCCCCNC(=N)N)cc(CCCCC)cc1OCCCCCNC(=N)N ; wanted: its MIC 3.12 µg/mL

# input molecule: C=C(C)[C@@H]1CCC(C)=C[C@H]1c1c(OCCCCCBr)cc(CCCCC)cc1OCCCCCBr ; wanted: its MIC > 50 µg/mL

# input molecule: C=C(C)[C@@H]1CCC(C)=C[C@H]1c1c(OCCCCN)cc(CCCCC)cc1OCCCCN ; wanted: its MIC 12.5 µg/mL

# input molecule: C=C(C)[C@@H]1CCC(C)=C[C@H]1c1c(OCC(=O)N[C@@H](CCCNC(=N)N)C(N)=O)cc(CCCCC)cc1OCC(=O)N[C@@H](CCCNC(=N)N)C(N)=O ; wanted: its MIC > 50 µg/mL

# input molecule: C=C(C)[C@@H]1CCC(C)=C[C@H]1c1c(O)cc(CCCCC)cc1O ; wanted: its MIC > 50 µg/mL

# input molecule: C=C(C)[C@@H]1CCC(C)=C[C@H]1c1c(OCCCCI)cc(CCCCC)cc1OCCCCI ; wanted: its MIC > 50 µg/mL

# input molecule: C=C(C)[C@@H]1CCC(C)=C[C@H]1c1c(OCCCCCCCCCCNC(=N)N)cc(CCCCC)cc1OCCCCCCCCCCNC(=N)N ; wanted: its MIC > 50 µg/mL

# input molecule: C=C(C)[C@@H]1CCC(C)=C[C@H]1c1c(OCCCCNC)cc(CCCCC)cc1OCCCCNC ; wanted: its MIC 50 µg/mL

# input molecule: C=C(C)[C@@H]1CCC(C)=C[C@H]1c1c(OCCCCCCCCCCBr)cc(CCCCC)cc1OCCCCCCCCCCBr ; wanted: its MIC > 50 µg/mL

# input molecule: C=C(C)[C@@H]1CCC(C)=C[C@H]1c1c(OCCCCN(C)CCCN(C)CCCNC)cc(CCCCC)cc1OCCCCN(C)CCCN(C)CCCNC ; wanted: its MIC 6.25 µg/mL

# input molecule: C=C(C)[C@@H]1CCC(C)=C[C@H]1c1c(OCCCNC(=N)N)cc(CCCCC)cc1OCCCNC(=N)N ; wanted: its MIC 1.56 µg/mL

# input molecule: C=C(C)[C@@H]1CCC(C)=C[C@H]1c1c(OCCCCN(CC)CC)cc(CCCCC)cc1OCCCCN(CC)CC ; wanted: its MIC > 50 µg/mL

# input molecule: C=C(C)[C@@H]1CCC(C)=C[C@H]1c1c(OCCCCN(C)CCCNC)cc(CCCCC)cc1OCCCCN(C)CCCNC ; wanted: its MIC 3.12 µg/mL

# input molecule: C=C(C)[C@@H]1CCC(C)=C[C@H]1c1c(OCC(=O)N[C@@H](CCCNC(=N)N)C(=O)N[C@@H](CCCNC(=N)N)C(=O)OC)cc(CCCCC)cc1OCC(=O)N[C@@H](CCCNC(=N)N)C(=O)N[C@@H](CCCNC(=N)N)C(=O)OC ; wanted: its MIC > 50 µg/mL

# input molecule: C=C(C)[C@@H]1CCC(C)=C[C@H]1c1c(OCCCBr)cc(CCCCC)cc1OCCCBr ; wanted: its MIC > 50 µg/mL
